The values you see were collected from the RNAGym collection of RNA variant scans (doi:10.7554/elife.80360).

B1: Twister Ribozyme (parent)
chain: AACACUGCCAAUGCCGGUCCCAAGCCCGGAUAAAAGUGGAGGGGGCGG

variants of: B1; assay: self-cleavage, relative activity (ratio to wild type); higher = more cleavage; co-transcriptional
Let's look at some variants and their measured self-cleavage.
PARAMETER: self-cleavage

| MUTATION SPEC | REPORTED RESULT |
| --- | --- |
| A11G A33C | 0.836 |
| A4U G13C | 0.0685 |
| A22C A35G | 1.02 |
| C21U G47C | 0.0939 |
| C26A G43U | 0.11 |
| A1G A32U | 0.459 |
| C21G A33G | 0.03 |
| U6A G36A | 0.168 |
| U31C G36C | 0.635 |
| A10C A11U | 0.883 |
| A1C C26G | 0.171 |
| C27U G41A | 0.347 |
| U12A G42C | 0.601 |
| G16C G43C | 0.161 |
| U6C A40U | 0.119 |
| G43A G47C | 0.208 |
| A10G C21U | 0.162 |
| G28A U37G | 0.331 |
| G16A G43A | 0.261 |
| A22G A35C | 0.195 |
| A2C U6G | 0.0861 |
| U6G U37G | 0.196 |
| C25U C46G | 0.762 |
| C20A G36A | 0.0747 |
| C9U C14A | 0.56 |
| G17A A32U | 0.476 |
| C5A C46A | 0.652 |
| G29A G43A | 0.195 |
| A11G U18C | 0.382 |
| C8G G43A | 0.137 |
| A33G G44U | 0.86 |
| G24C C27U | 0.0994 |
| C9A C19U | 0.197 |
| A30G G44U | 0.887 |
| C21U G24A | 0.102 |
| G44C G48A | 0.289 |
| C19G A33C | 0.0963 |
| C19U G47C | 0.235 |
| A22U G42U | 0.191 |
| G29A C46U | 0.948 |
| G36A G42C | 0.168 |
| U6C U12A | 0.663 |
| U6G G28A | 0.138 |
| G17C A33C | 0.0741 |
| G28A G44A | 0.702 |
| A10C G48A | 0.822 |
| A4C G44C | 0.0939 |
| U6C A34U | 0.333 |
| A11C G41A | 0.336 |
| G17A G39A | 0.153 |
| C5U G44A | 0.748 |
| U6G C15U | 0.569 |
| C21G G45A | 0.114 |
| C8U G44U | 0.603 |
